src = patent US8232407B2

Overview of recorded Plutella xylostella Mortality (%) 500 ppm for various molecules
Tested on: Plutella xylostella
PROTOCOL DESCRIPTION: Insecticidal activities to diamondback moth, feeding dipped leaves
Type: in vivo
SETTINGS: in vivo
MEASURE NAME: Plutella xylostella Mortality (%) 500 ppm

{"columns": ["STRUCTURE NOTATION", "NUMBER"],
 "data": [
  ["C[N+]1=C(C(=Cc2ccsc2)[N+](=O)[O-])N(Cc2cnc(Cl)s2)CC1.[Cl-]", 100],
  ["C[N+]1=C(C(=Cc2ccc(Br)s2)[N+](=O)[O-])N(Cc2ccc(Cl)nc2)CC1.[Cl-]", 100],
  ["N#CC(=Cc1ccsc1)C1=NCCN1Cc1ccc(Cl)nc1", 100],
  ["O=[N+]([O-])C(=Cc1oc(Cl)cc1Cl)C1=NCCCN1Cc1ccc(Cl)nc1", 100],
  ["CCc1ccc(C=C(C2=[N+](C)CCN2Cc2ccc(Cl)nc2)[N+](=O)[O-])o1.[Cl-]", 100],
  ["CCc1ccc(C(C)=C(C2=NCCN2Cc2ccc(Cl)nc2)[N+](=O)[O-])o1", 96],
  ["CC(=C(C1=NCCN1Cc1ccc(Cl)nc1)[N+](=O)[O-])c1ccco1", 25],
  ["Cc1ccc(C=C(C2=[N+](C)CCN2Cc2ccc(Cl)nc2)[N+](=O)[O-])s1.[Cl-]", 100],
  ["O=[N+]([O-])C(=Cc1cnco1)C1=NCCN1Cc1ccc(Cl)nc1", 100],
  ["CC[N+]1=C(C(=Cc2ccoc2)[N+](=O)[O-])N(Cc2ccc(Cl)nc2)CC1.[Cl-]", 100]
]}
